Species on record: Rattus norvegicus
Test: Open TG-GATES - Regimen: Daily Repeat
Type: toxicity, organism-based, Sprague-Dawley
Parameters: regimen Daily Repeat, gender Male, age 6 weeks
Details: in vivo, po, 0 mg/kg, […], tissue Blood, route gavage, dose level Control, time 7 day
PROPERTY: WBC (x10_2/uL)
All answers are understood in x10_2/uL, so give the number only.

MOLECULE	REPORTED
CCc1oc2ccccc2c1C(=O)c1cc(I)c(O)c(I)c1	108.6
CC(=O)Oc1cc(C(C)C)c(OCCN(C)C)cc1C	75.9

## Input Fill in: WBC of "CC(C)(S)[C@@H](N)C(=O)O" is ___
## Output 98.3

## Input Fill in: WBC of "Nc1nc(N)c2nc(-c3ccccc3)c(N)nc2n1" is ___
## Output 94

## Input Fill in: WBC of CC(=N)S [THIOACETAMIDE] is ___
## Output 145.6
